Property: EC50; scope: individual binders
# Target system: T1, human SIRPβ1v2 (huSIRPβ1v2) (human, UniProt Q5TFQ8 30-371)
# T1 construct: Coated on the plate in ELISA; Only the Ensembl protein number is printed; also called huSIRPß1v2
# T1 sequence (Q5TFQ8 30-371 limits assumed): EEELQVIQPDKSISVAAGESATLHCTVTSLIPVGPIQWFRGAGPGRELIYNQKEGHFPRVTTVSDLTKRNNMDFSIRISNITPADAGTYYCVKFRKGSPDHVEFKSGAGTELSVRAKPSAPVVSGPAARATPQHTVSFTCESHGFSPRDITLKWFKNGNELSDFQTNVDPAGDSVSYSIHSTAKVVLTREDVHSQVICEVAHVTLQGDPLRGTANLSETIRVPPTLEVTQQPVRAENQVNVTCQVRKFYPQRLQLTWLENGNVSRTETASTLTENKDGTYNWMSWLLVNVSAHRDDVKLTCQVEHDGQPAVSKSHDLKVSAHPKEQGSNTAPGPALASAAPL
# Test method notes: ELISA, antigen coated
Quantity name: EC50 (µg/mL)

• anti-SIRPα antibody 1 (antibody, human IgG1, kappa, L234A L235A, V domains shown, Rabbit variable regions on human IgG1 LALA / kappa) VH: QSVEESGGRLVTPGTPLTLTCTVSGIDLSSYAMSWVRQAPGKGLEWIGIISSGGITYYASWAKGRFTISKTSTTVDLKIPSPTTEDTATYFCARSLWAASNYYMALWGPGTLVTVSS VL: AIKMTQTPASVSAAVGGTVSINCQASEDIESYLAWYQQKPGQPPKLLIYRASTLASGVSSRFKGSGSGTQFTLTISDLESADAATYYCLGDYYSSSGDTGAFGGGTEVVVKR = 0.058
• anti-SIRPα antibody 6 (antibody, human IgG1, kappa, L234A L235A, V domains shown, Rabbit variable regions on human IgG1 LALA / kappa) VH: QSVEESGGRLVTPGTPLTLTCTVSGIDLSSYTMTWVRQAPGKGLEWIGIIYAGGSTAYASWAKGRFTISKTSTTVDLKITSPTTEDTATYFCARSSSDGYDYFNIWGPGTLVTVSL VL: GVVMTQTPSSVSAAVGGTVTINCQASQSIGSWLAWYQQKPGQPPKLLIYQASKLASGVPSRFSGRGSGTHFTLTISDVQSDDAATYYCQQTVTAASNVDNAFGGGTEVVVKR = 0.024
• 12C4huIgG1LALA (antibody, V domains shown, HAVT20 leader left out; also called 12C4LALA; huIgG112C4LALA) VH: EVKLEESGGGLMQPGGSMKLSCVASGFTFSNYWMNWVRQSPEKGLEWVAEIRLKSNNYATHYAESVKGRFTISRDDSKSSVYLQMNNLRAEDTGIYYCIRDYDYDAYFDYWGQGTTLTVSS VL: DIVLTQSPASLAVSLGQRATISCRASKSVSTSGYNYMYWYQQKPGQPPKLLIYLASNLESGVPARFSGSGSGTDFTLNIHPVEEEDAATYYCQHSGELPYTFGGGTKLEIKR = 0.006
